# Target entity: WWP2^HECT (Homo sapiens)
# Construct: GST-TEV (N, cleaved yes); made in house; host or cells: Escherichia coli BL21 (DE3)
# Sequence (O00308 492-865): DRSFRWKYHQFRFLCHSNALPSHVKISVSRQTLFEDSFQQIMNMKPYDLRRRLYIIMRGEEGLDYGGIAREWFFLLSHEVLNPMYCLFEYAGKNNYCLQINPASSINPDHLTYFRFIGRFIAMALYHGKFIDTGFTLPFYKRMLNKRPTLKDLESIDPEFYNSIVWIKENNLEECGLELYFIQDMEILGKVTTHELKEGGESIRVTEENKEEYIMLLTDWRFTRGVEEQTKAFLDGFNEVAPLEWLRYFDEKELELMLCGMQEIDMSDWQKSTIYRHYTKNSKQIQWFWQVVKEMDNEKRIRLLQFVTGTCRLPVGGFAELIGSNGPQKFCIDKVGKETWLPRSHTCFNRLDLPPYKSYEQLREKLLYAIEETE
# Method description: Naive Library Presenter Screening (phage, NGS), WWP2^HECT
# Type: binding
# Measurement setup: WWP2 target concentration 100 nM
Numbered stars: 1 amine (or outer) side, 2 acyl side, 3 side chain; on linkers, the order of the positions; unused ones are H or OH. Bridge positions count the residues as written; N and C are the ends. Ends that are not written are not given here. Phenylene(1,4-NHCOCH2)2 = O=C(C[*:1])Nc1ccc(NC(=O)C[*:2])cc1
Assay endpoint: interaction data at Target Concentration 100

A selection of reference data follows.
{"columns": ["Chain sequence", "Assay value"],
 "data": [
  ["DPALWHCLAAAETCAMF (linker 7-14 via Phenylene(1,4-NHCOCH2)2; not fully specified (C-terminus))", 24],
  ["DPATWDCRNAAWLCLLN (linker 7-14 via Phenylene(1,4-NHCOCH2)2 (inferred); not fully specified (C-terminus))", 4],
  ["DPALIHCRAAADTCAFW (linker 7-14 via Phenylene(1,4-NHCOCH2)2; not fully specified (C-terminus))", 384],
  ["DPATWDCIWAAERCWRY (linker 7-14 via Phenylene(1,4-NHCOCH2)2 (inferred); not fully specified (C-terminus))", 1],
  ["DPAIHSCYAAAETCQFF (linker 7-14 via Phenylene(1,4-NHCOCH2)2 (inferred))", 89]
]}

a = DPATWACINAAHNCWRN (DPATWACINAAHNCWRN-NH2; linker 7-14 via Phenylene(1,4-NHCOCH2)2 (inferred))
b = DPAIQNCRSAADVCMFF (linker 7-14 via Phenylene(1,4-NHCOCH2)2; not fully specified (C-terminus))
c = DPAANYCEAAADTCQFF (linker 7-14 via Phenylene(1,4-NHCOCH2)2 (inferred))
d = DPAAWDCRYAALACYIH (linker 7-14 via Phenylene(1,4-NHCOCH2)2 (inferred))
e = DPATWDCNVAAHRCWFL (linker 7-14 via Phenylene(1,4-NHCOCH2)2 (inferred); not fully specified (C-terminus))
Asked: Order the records, beginning with the lowest interaction data at Target Concentration 100 and ending with the highest. Please list the labels in the order you were asked to rank them.
Given back: a, d, e, b, c

A = DPAVWECRWAAFQCWLD (linker 7-14 via Phenylene(1,4-NHCOCH2)2 (inferred); not fully specified (C-terminus))
B = DPALWECRNAAWQCWMH (linker 7-14 via Phenylene(1,4-NHCOCH2)2; not fully specified (C-terminus))
Asked: Dear colleague, could you let me know whether A or B has the lower recorded interaction data at Target Concentration 100? Thanks. Return value: the label identifying the chosen record.
Given back: B
(B: 0, A: 88)

a = DPAYHHCLAAADLCSFF
b = DPATYYCEAAAETCRFF (linker 7-14 via Phenylene(1,4-NHCOCH2)2 (inferred); not fully specified (C-terminus))
Asked: Dear colleague, could you let me know whether a or b has the lower recorded interaction data at Target Concentration 100? Thanks. Return value: the label identifying the chosen record.
Given back: b
(b: 70, a: 107)

====

# Target entity: PPIA (Homo sapiens, UniProt P62937)
# Construct: Full length PPIA (residues 1-165) with an N-terminal 6×his-yBBR-TEV tag; 6×his-yBBR-TEV (N); made in house; host or cells: E. coli BL21 (DE3) CodonPlus RIPL
# Sequence (P62937 whole entry, the tested form may be a part): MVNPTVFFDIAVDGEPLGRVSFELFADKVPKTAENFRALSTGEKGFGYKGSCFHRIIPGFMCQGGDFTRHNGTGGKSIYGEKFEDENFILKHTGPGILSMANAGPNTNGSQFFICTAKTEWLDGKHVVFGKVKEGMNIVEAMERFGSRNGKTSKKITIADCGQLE
# Method description: Phage Library Screening with NGS, PPIA
# Assay type: binding
# Measurement setup: target concentration 300
Bridge positions count the residues as written; N and C are the ends.
Assay endpoint: phage screen counts, Target Concentration 300

{"columns": ["Chain sequence", "Target entity", "Assay value"],
 "data": [
  ["DPARYSCHVAAYECILN", "PPIA (Homo sapiens, UniProt P62937)", 14],
  ["PDCHVAAWMCF", "PPIA (Homo sapiens, UniProt P62937)", 8],
  ["DPARTDCHVAAYWCYHQ", "PPIA (Homo sapiens, UniProt P62937)", 14],
  ["PDCHIRAYMCN", "PPIA (Homo sapiens, UniProt P62937)", 0],
  ["DPARADCHVAAYWCYHR", "PPIA (Homo sapiens, UniProt P62937)", 6]
]}

1 = DPAYYDCHIAAYFCRTQ
2 = PDCHIRAYVCH (Ac-PDCHIRAYVCH-NH2; bridge 3-10; also: Cys-Cys staple, linker not named)
3 = PDCHIYAFYCL
4 = PDCHIASWFCS
5 = DPAQHDCHVAAYQCIWE
Asked: Order the records, beginning with the lowest phage screen counts, Target Concentration 300 and ending with the highest. Please list the labels in the order you were asked to rank them.
Given back: 4, 3, 2, 1, 5

a = PDCHIQAYICH
b = DPAAFSCHVAAWQCHTL
Asked: Task for the reader: decide whether a or b has the larger phage screen counts, Target Concentration 300. Return value: the label identifying the chosen record.
Given back: b
(b: 199, a: 4)
